Biological target: T1, monkey PRLR on HEK293/mfPRLR cells (Macaca fascicularis, UniProt A0A2K5WXK1)
T1 construct: HA; expressed in transfected cells; host or cells: HEK293
T1 sequence (A0A2K5WXK1 25-619): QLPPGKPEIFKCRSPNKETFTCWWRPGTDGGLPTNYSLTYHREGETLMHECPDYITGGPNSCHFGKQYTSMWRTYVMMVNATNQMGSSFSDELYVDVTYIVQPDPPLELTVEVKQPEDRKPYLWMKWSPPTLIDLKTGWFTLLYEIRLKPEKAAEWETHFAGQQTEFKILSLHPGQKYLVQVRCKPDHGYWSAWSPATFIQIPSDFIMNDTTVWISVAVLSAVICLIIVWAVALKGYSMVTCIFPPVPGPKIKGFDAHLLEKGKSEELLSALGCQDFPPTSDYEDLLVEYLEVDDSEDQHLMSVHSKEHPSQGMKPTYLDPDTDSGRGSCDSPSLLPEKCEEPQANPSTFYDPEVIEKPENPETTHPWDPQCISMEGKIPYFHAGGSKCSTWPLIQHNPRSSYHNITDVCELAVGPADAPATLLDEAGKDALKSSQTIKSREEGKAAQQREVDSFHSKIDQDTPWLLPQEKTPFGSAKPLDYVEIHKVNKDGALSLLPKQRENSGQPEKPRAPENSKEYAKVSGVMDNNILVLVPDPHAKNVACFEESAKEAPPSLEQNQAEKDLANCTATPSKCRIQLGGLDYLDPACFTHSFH
Assay: FACS cell surface binding
Entries annotated with measured FACS Cell Binding
experimental readout: FACS Cell Binding (Fold Above Background)

>  <molecule>
H1H6782P: fully human anti-PRLR antibody, non-blocking; HCVR/LCVR SEQ ID NOs 66/74 (antibody, V domains shown) VH: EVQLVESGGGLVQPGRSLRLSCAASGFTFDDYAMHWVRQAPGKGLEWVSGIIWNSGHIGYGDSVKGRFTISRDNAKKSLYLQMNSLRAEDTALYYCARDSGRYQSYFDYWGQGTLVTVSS VL: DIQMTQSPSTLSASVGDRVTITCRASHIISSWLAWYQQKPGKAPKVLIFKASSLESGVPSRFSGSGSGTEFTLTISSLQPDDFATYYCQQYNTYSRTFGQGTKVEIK

>  <experimental readout>
FACS Cell Binding

>  <reported measurement>
32

$$$$
>  <molecule>
H1H6967N: anti-PRLR antibody, human IgG1 Fc form of H2M6967N of Table 1; HCVR/LCVR SEQ ID NOs 354/362 (antibody, V domains shown, human IgG1 Fc) VH: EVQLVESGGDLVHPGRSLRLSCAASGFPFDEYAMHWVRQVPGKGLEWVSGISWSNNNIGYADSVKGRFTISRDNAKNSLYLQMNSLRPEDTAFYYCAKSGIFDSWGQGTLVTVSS VL: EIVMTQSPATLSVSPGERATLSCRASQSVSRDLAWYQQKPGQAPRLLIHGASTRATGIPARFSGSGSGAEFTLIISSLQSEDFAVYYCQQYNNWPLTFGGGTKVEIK

>  <experimental readout>
FACS Cell Binding

>  <reported measurement>
28

$$$$
>  <molecule>
H1H6975N: anti-PRLR antibody, human IgG1 Fc form of H2M6975N of Table 1; HCVR/LCVR SEQ ID NOs 370/378 (antibody, V domains shown, human IgG1 Fc) VH: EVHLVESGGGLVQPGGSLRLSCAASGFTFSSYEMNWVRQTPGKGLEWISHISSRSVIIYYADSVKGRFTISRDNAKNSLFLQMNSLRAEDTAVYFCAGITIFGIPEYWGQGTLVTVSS VL: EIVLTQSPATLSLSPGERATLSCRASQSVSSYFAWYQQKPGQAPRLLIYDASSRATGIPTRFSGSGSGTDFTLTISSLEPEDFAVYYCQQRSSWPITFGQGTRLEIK

>  <experimental readout>
FACS Cell Binding

>  <reported measurement>
29

$$$$
>  <molecule>
H1H6966N: anti-PRLR antibody, human IgG1 Fc form of H2M6966N of Table 1; HCVR/LCVR SEQ ID NOs 338/346 (antibody, V domains shown, human IgG1 Fc) VH: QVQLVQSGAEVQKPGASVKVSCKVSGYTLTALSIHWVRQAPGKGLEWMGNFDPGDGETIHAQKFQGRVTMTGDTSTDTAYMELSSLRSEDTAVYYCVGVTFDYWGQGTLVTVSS VL: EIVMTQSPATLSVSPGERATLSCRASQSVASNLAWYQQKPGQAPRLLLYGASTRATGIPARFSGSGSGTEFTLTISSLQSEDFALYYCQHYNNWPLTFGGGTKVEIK

>  <experimental readout>
FACS Cell Binding

>  <reported measurement>
18

$$$$
